These measurements were taken from patent US20250361253A1.

Biological target: UniProtKB Q86WV6
Sequence (Q86WV6 155-341 H232R limits assumed): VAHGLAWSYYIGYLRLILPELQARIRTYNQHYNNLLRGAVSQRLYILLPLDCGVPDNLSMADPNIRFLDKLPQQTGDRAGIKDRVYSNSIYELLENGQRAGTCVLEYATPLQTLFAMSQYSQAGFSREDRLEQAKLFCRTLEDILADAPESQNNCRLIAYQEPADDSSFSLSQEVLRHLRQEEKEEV
Assay: Thermal shift assay (DSF)
Assay type: binding
Parameters: unit not given here
Details: compound at 3.12 uM
test_readout: hSTING WT DSF (delta TmD @ 3.12 uM)

{"compound": "COc1cc2sc(C(=O)CC(C)(C)C(=O)O)cc2c(F)c1OCCCOc1c(OC)cc2sc(C(=O)CP(=O)(O)O)cc2c1F [Compound 6]", "endpoint_result": 20}

[A] COc1cc2sc(C(=O)CCC(=O)O)cc2c(F)c1OCCCOc1c(OC)cc2sc(C(=O)CCP(=O)(O)O)cc2c1F [Compound 7]
[B] COC(=O)C(C)(C)CC(=O)c1cc2c(F)c(OCCCOc3c(OC)cc4sc(C(=O)CP(=O)(O)O)cc4c3F)c(OC)cc2s1 [Compound 5]
Between A and B , which one shows the larger hSTING WT DSF (delta TmD @ 3.12 uM) value? Identify your pick by its label.
A

---

Biological target: mSTING (Mus musculus, UniProt Q3TBT3)
Sequence (Q3TBT3 whole entry): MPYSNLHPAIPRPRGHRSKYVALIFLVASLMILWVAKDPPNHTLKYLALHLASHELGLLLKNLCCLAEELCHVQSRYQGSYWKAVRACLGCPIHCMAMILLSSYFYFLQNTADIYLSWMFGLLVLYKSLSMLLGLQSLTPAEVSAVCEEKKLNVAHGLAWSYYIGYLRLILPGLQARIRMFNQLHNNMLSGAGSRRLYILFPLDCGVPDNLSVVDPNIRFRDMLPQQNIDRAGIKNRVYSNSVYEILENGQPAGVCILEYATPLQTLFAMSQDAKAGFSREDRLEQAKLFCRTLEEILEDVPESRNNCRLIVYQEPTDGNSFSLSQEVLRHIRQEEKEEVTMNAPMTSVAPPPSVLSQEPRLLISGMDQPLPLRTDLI
Assay: ISG reporter induction in 293-Dual mSTING reporter cells (QUANTI-Blue)
Conditions: 293-Dual mSTING cells, overnight incubation
pEC50: −log10 of the molar value.
Catalogue of compounds with associated pEC50

As a guide, the following entries are already answered.
{"compound": "COc1cc2sc(/C=C/CC(=O)O)cc2c(F)c1OCCCOc1c(OC)cc2sc(C(=O)CC(C)(C)C(=O)O)cc2c1F [Compound 11]", "endpoint_result": "≥ 7.30"}
{"compound": "COc1cc2sc(C(=O)CC(C)(C)C(=O)O)cc2c(F)c1OCCCOc1c(OC)cc2sc(C(=O)CC(C)(C)C(=O)NCCN)cc2c1F [Compound 18]", "endpoint_result": "< 6.82"}

Query compound follows.
Which value of pEC50 has been reported for COc1cc2sc(/C=C/CC(=O)O)cc2c(F)c1OCCCOc1c(OC)cc2sc(C(=O)CP(=O)(O)O)cc2c1F [Compound 32] in the records?
< 6.82

---

Biological target: mSTING (Mus musculus, UniProt Q3TBT3)
Experiment: ISG reporter induction in 293-Dual mSTING reporter cells (QUANTI-Blue)
Conditions: 293-Dual mSTING cells, overnight incubation
test_readout: EC50

Past entries and their recorded results:
{"compound": "COc1cc2cc(C(=O)CCC(=O)O)ccc2cc1OCCCOc1c(OC)cc2sc(C(=O)CC(C)(C)C(=O)O)cc2c1F [Compound 22]", "system_name": "mSTING (Mus musculus, UniProt Q3TBT3)", "endpoint_result": "> 150 nM"}
{"compound": "COc1cc2sc(C(=O)CC(C)(C)C(=O)O)cc2c(F)c1OCCCOc1ccc2cc(C(=O)CCC(=O)O)ccc2c1 [Compound 13]", "system_name": "mSTING (Mus musculus, UniProt Q3TBT3)", "endpoint_result": "50 to 150 nM"}

Endpoint output: EC50 of COc1cc2sc(C(=O)CC(C)(C)C(=O)O)cc2c(F)c1OCCCOc1c(OC)cc2sc(C(=O)CC(C)(C)C(=O)NS(=O)(=O)CCN)cc2c1F [Compound 17] . Value?
> 150 nM
